# test system: Ubiquitin carboxyl-terminal hydrolase 8 (Homo sapiens) (UniProt P40818)
# Sequence (P40818 whole entry, looked up): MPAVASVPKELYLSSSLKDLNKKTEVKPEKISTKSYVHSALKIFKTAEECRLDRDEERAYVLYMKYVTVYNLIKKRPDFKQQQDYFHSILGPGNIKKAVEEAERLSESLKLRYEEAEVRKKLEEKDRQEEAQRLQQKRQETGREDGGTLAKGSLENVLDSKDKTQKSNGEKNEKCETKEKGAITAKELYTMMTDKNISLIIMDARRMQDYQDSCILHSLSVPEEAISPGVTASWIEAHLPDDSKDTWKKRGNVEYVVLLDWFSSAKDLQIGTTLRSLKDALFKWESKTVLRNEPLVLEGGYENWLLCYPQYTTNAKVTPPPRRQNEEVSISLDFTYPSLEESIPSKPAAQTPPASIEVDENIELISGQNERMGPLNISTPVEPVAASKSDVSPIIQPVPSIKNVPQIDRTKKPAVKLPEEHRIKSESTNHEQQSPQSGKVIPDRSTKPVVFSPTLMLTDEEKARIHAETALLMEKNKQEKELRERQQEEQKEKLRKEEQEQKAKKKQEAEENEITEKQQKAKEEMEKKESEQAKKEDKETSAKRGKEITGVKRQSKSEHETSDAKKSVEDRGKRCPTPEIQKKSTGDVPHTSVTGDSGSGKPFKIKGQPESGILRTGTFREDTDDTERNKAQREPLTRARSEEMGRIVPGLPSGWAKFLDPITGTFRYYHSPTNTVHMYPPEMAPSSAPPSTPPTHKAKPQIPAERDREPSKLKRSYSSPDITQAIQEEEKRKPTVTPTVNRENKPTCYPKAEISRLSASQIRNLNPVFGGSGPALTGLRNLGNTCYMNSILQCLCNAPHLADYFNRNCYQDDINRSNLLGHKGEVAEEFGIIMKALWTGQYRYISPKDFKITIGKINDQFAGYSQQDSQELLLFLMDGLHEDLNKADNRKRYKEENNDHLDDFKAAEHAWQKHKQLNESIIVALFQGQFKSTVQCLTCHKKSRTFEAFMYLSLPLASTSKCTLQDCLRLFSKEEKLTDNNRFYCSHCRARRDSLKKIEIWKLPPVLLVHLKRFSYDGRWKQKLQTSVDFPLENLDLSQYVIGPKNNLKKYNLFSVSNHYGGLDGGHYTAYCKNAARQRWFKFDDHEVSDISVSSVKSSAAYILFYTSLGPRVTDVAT
# procedure summary: Ubiquitin-specific protease 8 inhibitors, concentration-effect, biochemical, validation of initial actives (AID 1645862);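 further: potency reflects inhibition of USP8 cleavage of a ubiquitin rhodamine substrate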
# condition notes: recombinant USP8 deubiquitinase activity assay
Activity calls are given as the source filed them. How the calls were made is not given here.
In this exercise, the only acceptable responses are active, inactive

Observe how each entry below is paired with its result.
INSERT INTO measurements (compound, assigned_label) VALUES
  ('CCc1[nH]c(=O)cc2cc(OC)c(OC)cc12', 'active'),
  ('Cc1nc(-c2ccc(Cl)cc2)oc1C(=O)Nc1ccc(Cl)cc1', 'inactive');

Given `Cc1cccc(NC(=O)CSc2nnc(-c3n[nH]c4c3CCC4)n2N)c1C` , state the outcome it received in this test.
inactive

Given `O=c1[nH]c(C2CCN(S(=O)(=O)c3ccc(S(=O)(=O)NC4CCCCC4)cc3)CC2)nc2c1nnn2Cc1c(Cl)cccc1Cl` , state the outcome it received in this test.
inactive

Given `Cc1cc2nc(SCC(=O)c3ccc(O)cc3)[nH]c2cc1C` , state the outcome it received in this test.
inactive

Given `O=C(NCc1ccc2c(c1)OCO2)c1cc2c(s1)CCC2` , state the outcome it received in this test.
active

Given `CCc1noc(-c2ccn3c(CC(=O)Nc4ccccc4C)nnc3c2)n1` , state the outcome it received in this test.
active

Given `Cc1cccc(NC(=O)c2noc3c2CCc2sccc2-3)n1` , state the outcome it received in this test.
inactive

Given `Cc1ccc2c(c1)c(=O)c(C(=O)c1ccccc1)cn2CC(=O)Nc1ccc2c(c1)OCCO2` , state the outcome it received in this test.
inactive

Given `O=C(Nc1ccccc1-c1nc2ccccc2[nH]1)c1sc2ccccc2c1Cl` , state the outcome it received in this test.
active
